assay: MT-4 cytotoxicity assay; type: cell-based; conditions: human, MT-4 cells (mock-infected), CC50, MT-4 cell line, n = 3
Observation Type: CC50 at 5 days
Could you write the number and then its unit?

Example cases with answers are listed next.
>  <Substance Smiles>
N#Cc1ccc(Nc2cc(C(=O)c3c(F)cc(F)cc3F)nc(N)n2)cc1

>  <CC50 at 5 days>
0.981 µM

$$$$
>  <Substance Smiles>
N#Cc1ccc(Nc2nc(Cl)cc(Nc3c(F)cc(F)cc3F)n2)cc1

>  <CC50 at 5 days>
10.2 µM

$$$$

# input Could you share which CC50 at 5 days value was measured for `N#Cc1ccc(Nc2nc(N)cc(C(=O)c3c(F)cc(F)cc3F)n2)cc1` ?
# output 24.3 µM
